Values from ChEMBL document CHEMBL4017461

Target: E3 ubiquitin-protein ligase Mdm2 (Homo sapiens)
Experiment: Inhibition of biotin-labelled p53 binding to MDM2 (25 to 109 residues) (unknown origin) by surface plasmon resonance method
testReadout: pIC50
Give only the number. pIC50 is defined as minus log10 of concentration in molar units.

## Task Form field: reported pIC50 of "O=C1C=CC(=O)C=C1"
## Result 4.86

---

Molecular target: E3 ubiquitin-protein ligase Mdm2 (Homo sapiens, UniProt Q00987)
Sequence (Q00987 whole entry, the tested form may be a part): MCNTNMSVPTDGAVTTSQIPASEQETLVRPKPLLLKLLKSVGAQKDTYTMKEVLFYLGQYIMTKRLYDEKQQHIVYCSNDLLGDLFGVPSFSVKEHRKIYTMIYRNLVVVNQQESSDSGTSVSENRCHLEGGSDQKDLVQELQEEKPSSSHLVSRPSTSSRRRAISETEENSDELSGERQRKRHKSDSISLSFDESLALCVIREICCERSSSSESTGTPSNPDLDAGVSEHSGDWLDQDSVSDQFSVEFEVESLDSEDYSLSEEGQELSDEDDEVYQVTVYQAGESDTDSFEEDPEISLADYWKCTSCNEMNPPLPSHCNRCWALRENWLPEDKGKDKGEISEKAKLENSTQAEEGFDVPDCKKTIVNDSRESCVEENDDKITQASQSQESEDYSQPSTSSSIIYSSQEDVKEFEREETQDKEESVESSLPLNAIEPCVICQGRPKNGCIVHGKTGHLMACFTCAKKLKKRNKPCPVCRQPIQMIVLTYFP
Assay: Inhibition of biotin-labelled L-p53 binding to L-MDM2 (25 to 109 residues) (unknown origin) by FAM labeled P4 peptide based fluorescence polarization assay
Would you kindly list pIC50 for each of these compounds?
Kindly note that pIC50 refers to -log10 of the concentration in mol/L and answer with the value alone.

## Task Reported pIC50, compound CN1CCc2cccc3c2[C@@H]1Cc1ccc(O)c(O)c1-3 [(S)APOMORPHINE] : ____
## Result 6.76

## Task Can you handle "CN1CCc2cccc3c2[C@H]1Cc1ccc(O)c(O)c1-3" next?
## Result 6.67
